test: Pharmacokinetics of payload in mice; parameters: species or system C57BL/6 mice; details: C57BL/6, mouse, in vivo, iv, 0.5 mg/kg
readout type: AUC(0-t) (ng·h/mL)
One number for each entry, in ng·h/mL.

For `CC[C@@]1(O)C(=O)OCc2c1cc1n(c2=O)Cc2c-1nc1cc(F)c(C)c3c1c2[C@@H](NC(=O)[C@H](O)C1CC1)CC3` , what is its reported AUC(0-t)?
113

* * *

assay: Parallel artificial membrane permeability (PAMPA) assay; format: in vitro ADME; conditions: pH 5
readout type: Papp at 30 min, 5 µM (×10⁻⁶ cm/s)
Give bare numbers, in ×10⁻⁶ cm/s.

May I ask what Papp at 30 min, 5 µM has been recorded for `CC[C@@]1(O)C(=O)OCc2c1cc1n(c2=O)Cc2c-1nc1cc(F)c(C)c3c1c2[C@@H](NC(=O)[C@H](O)C1CC1)CC3` ?
13.8

* * *

Test: Pharmacokinetics of payload in mice
Parameters: species or system C57BL/6 mice
Details: C57BL/6, mouse, in vivo, iv, 0.5 mg/kg
Procedure: All animal experiments at Shanghai Hengrui were approved by Shanghai Hengrui’s Institutional Animal Care and Use Committee. Studies were performed in accordance with ARRIVE guidelines. […] Mice were monitored daily for health condition and humane endpoint criteria. […] The compound concentrations were determined by SCIEX Triple Quad 7500 LC-MS/MS System (SCIEX).
readout type: Vd (L/kg)
Answers are plain numbers, in L/kg.

What Vd value was documented for this compound, `CC[C@@]1(O)C(=O)OCc2c1cc1n(c2=O)Cc2c-1nc1cc(F)c(C)c3c1c2[C@@H](NC(=O)[C@H](O)C1CC1)CC3` ?
1.81

* * *

biological target: human topoisomerase I (Homo sapiens)
Sequence (P11387 whole entry): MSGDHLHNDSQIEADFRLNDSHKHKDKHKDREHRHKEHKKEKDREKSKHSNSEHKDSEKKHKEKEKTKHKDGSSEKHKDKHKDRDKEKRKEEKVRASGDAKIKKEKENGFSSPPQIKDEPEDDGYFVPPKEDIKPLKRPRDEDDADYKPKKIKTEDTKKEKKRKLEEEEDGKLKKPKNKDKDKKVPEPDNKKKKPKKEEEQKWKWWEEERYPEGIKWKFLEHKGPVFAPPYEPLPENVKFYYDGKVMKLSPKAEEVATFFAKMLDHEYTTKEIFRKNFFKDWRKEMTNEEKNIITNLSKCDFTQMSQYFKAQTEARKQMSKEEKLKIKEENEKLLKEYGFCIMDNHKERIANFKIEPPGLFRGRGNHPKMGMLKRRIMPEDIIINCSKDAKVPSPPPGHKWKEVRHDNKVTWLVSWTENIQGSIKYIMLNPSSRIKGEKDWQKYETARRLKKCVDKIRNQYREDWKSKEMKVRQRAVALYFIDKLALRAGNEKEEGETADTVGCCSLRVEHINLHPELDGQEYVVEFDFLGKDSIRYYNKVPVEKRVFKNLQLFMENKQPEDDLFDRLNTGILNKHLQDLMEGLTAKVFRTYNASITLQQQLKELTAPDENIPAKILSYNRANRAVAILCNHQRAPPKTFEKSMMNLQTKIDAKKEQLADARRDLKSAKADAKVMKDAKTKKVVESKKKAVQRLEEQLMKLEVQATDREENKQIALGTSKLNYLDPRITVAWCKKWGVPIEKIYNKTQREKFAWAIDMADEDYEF
readout type: IC50 (µM)
Numbers only, in µM.

Quick one: IC50 for `CC[C@@]1(O)C(=O)OCc2c1cc1n(c2=O)Cc2c-1nc1cc(F)c(C)c3c1c2[C@@H](NC(=O)[C@H](O)C1CC1)CC3` ?
1.34

* * *

assay: Toxicokinetics in cynomolgus monkeys; type: in vivo; settings: both sexes, cynomolgus monkey, in vivo, iv, 40 mg/kg, analyte after SHR-A1811 40 mg/kg i.v. every 3 weeks; Multiple
readout type: half-life (h)
Numbers only, in h.

Item CC[C@@]1(O)C(=O)OCc2c1cc1n(c2=O)Cc2c-1nc1cc(F)c(C)c3c1c2[C@@H](NC(=O)[C@H](O)C1CC1)CC3 [SHR169265] has what recorded half-life?
101

* * *

experiment: Pharmacokinetics of payload in mice; set-up: species or system C57BL/6 mice; conditions: C57BL/6, mouse, in vivo, iv; mice, 0.5 mg/kg, i.v. injection
readout type: half-life (min)
Give bare numbers, in min.

Requested read-out: half-life. Entry: CC[C@@]1(O)C(=O)OCc2c1cc1n(c2=O)Cc2c-1nc1cc(F)c(C)c3c1c2[C@@H](NC(=O)[C@H](O)C1CC1)CC3 [SHR169265]
22.2

* * *

assay: Pharmacokinetics of payload in mice; design: species or system C57BL/6 mice; conditions: C57BL/6, mouse, in vivo, iv, 0.5 mg/kg
readout type: Cmax (µg/mL)
Answers are plain numbers, in µg/mL.

Entry under review: `CC[C@@]1(O)C(=O)OCc2c1cc1n(c2=O)Cc2c-1nc1cc(F)c(C)c3c1c2[C@@H](NC(=O)[C@H](O)C1CC1)CC3` . Reported Cmax?
0.25
